Cited source: PubChem BioAssay (NCI)

- Assay info: NCI Yeast Anticancer Drug Screen. Data for the bub3 strain (AID 167)
- Condition set: S. cerevisiae bub3 mutant strain, at 50.0 µM, hits give high values
Compounds without any hit were thinned out: in the full panel of roughly 79,000, 15% have a hit. Calls of active or inactive are those of the source. No stated cut-off is given here; in the data, active means growth inhibition above about 70%; inactive means the rest. Where a SMILES comes first, the peptide text is derived from it. The star is where a group is joined. Fmoc = O=C(OCC1c2ccccc2-c2ccccc21)*; OBn = c1ccc(CO*)cc1; tBu = CC(C)(C)*
Entries annotated with measured growth inhibition

Molecule: CCN(CC)C(=O)NCCCCCCNC(=O)N(CC)CC
growth inhibition: -29.2% (inactive)
--
Molecule: CCCCc1ccc(-n2cnc3c(=O)[nH]c(N)nc32)cc1
growth inhibition: 30.8% (inactive)
--
Molecule: CC(=O)Nc1cc([N+](=O)[O-])ccc1CC(O)c1ccccc1 (stereo not drawn)
growth inhibition: -1% (inactive)
--
Molecule: NC(=S)NNC(=O)c1cccs1
growth inhibition: 7.05% (inactive)
--
Molecule: CC(OC(C)(C)C)C(NC(=O)OCC1c2ccccc2-c2ccccc21)C(=O)NC(Cc1ccccc1)C(=O)OCc1ccccc1 (stereo not drawn) (Fmoc-Thr(tBu)-Phe-OBn; configuration not given here)
growth inhibition: -18.6% (inactive)
--
Molecule: CCOC(=O)C1CN(CCc2ccccc2)CCC1=O (stereo not drawn)
growth inhibition: 42.8% (inactive)
--
Molecule: O=C1c2ccccc2C(O)N1CCc1c[nH]c2ccccc12 (stereo not drawn)
growth inhibition: 1.3% (inactive)
--
Molecule: COC(=O)CCCCCCCCCCCCC1C=CCC1 (stereo not drawn)
growth inhibition: -5.85% (inactive)

====

Entries annotated with measured growth inhibition
- Assay info: NCI Yeast Anticancer Drug Screen. Data for the sgs1 mgt1 strain (AID 161);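 further: 0% = growth of cultures given vehicle only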
- Condition set: S. cerevisiae sgs1 mgt1 strain, at 50.0 µM, hits give high values
Compounds without any hit were thinned out: in the full panel of roughly 79,000, 15% have a hit. Active and inactive are the calls of the source. Cut-off read from the data, not from the text of the source: active = growth inhibition above about 70%; inactive = the rest.

Compound: CC(C)(C)NC(=O)Oc1ccc(-c2ccccc2)cc1
growth inhibition: 33% (inactive)
--
Compound: CCCCCCCCCc1ccc(COCC)cc1
growth inhibition: 7.05% (inactive)
--
Compound: CC(=O)OC(C(=O)Nc1ccc(Br)cc1)c1ccccc1 (stereo not drawn)
growth inhibition: -4.75% (inactive)
--
Compound: COC(=O)C1=C(C)N(NC(=O)Nc2ccccc2)C2(N)N(NC(=O)Nc3ccccc3)C(C)=C(C(=O)OC)C12C(=O)OC (stereo not drawn)
growth inhibition: 3.55% (inactive)
--
Compound: Cc1nc(C)c(CC#N)s1
growth inhibition: -1.75% (inactive)
--
Compound: CC(C)(C)OC(=O)NC(Cc1ccccc1)C(=O)OCN1C(=O)C2C3C=CC(C2C1=O)C1C2C(=O)N(COC(=O)C(Cc4ccccc4)NC(=O)OC(C)(C)C)C(=O)C2C31 (stereo not drawn)
growth inhibition: -0.5% (inactive)
--
Compound: CCCc1c(-c2ccccc2)nc(N)nc1-c1nc(N)nc(-c2ccccc2)c1CCC
growth inhibition: -12.4% (inactive)
--
Compound: CCCOCC(O)CNCCNCC(O)COCCC (stereo not drawn)
growth inhibition: 8.15% (inactive)

====

- Assay info: NCI Yeast Anticancer Drug Screen. Data for the bub3 strain (AID 167)
- Condition set: S. cerevisiae bub3 mutant strain, at 50.0 µM, hits give high values
Compounds without any hit were thinned out: in the full panel of roughly 79,000, 15% have a hit.

Compound: C[n+]1cc(Br)c2ccccc2c1
growth inhibition, %: 1.4
//
Compound: Cc1cc([O-])c([I+]c2ccccc2)c(=O)[nH]1
growth inhibition, %: 95.5
//
Compound: CC(C)COS(=O)(=O)O
growth inhibition, %: 15.2
//
Compound: CC1CC12OC(=O)N(c1cc(Cl)cc(Cl)c1)C2=O (stereo not given)
growth inhibition, %: -2.05
//
Compound: CC1(C)CCC2(C(=O)OC3OC(CO)C(O)C(O)C3O)CCC3(CO)C(=CCC4C5(C)CC(O)C(O)C(C)(C(=O)OC6OC(CO)C(O)C(O)C6O)C5CCC43C)C2C1 (stereo not given)
growth inhibition, %: 19.3
//
Compound: COc1ccc(OC)c(NC(C)=O)c1
growth inhibition, %: -24.4
//
Compound: Clc1ccc(-c2nnc(C34CC5CC(CC(C5)C3)C4)o2)cc1
growth inhibition, %: -8.5
//
Compound: CCOC(=O)C1C2CCCC(=O)C21 (stereo not given)
growth inhibition, %: 12.1
//
Compound: Cc1ccc(C2[C@H]3C(=O)N(c4ccc(Cc5ccc(N6C(=O)[C@@H]7ON(c8ccccc8)C(c8ccc(C)cc8)[C@@H]7C6=O)cc5)cc4)C(=O)[C@H]3ON2c2ccccc2)cc1 (stereo not given in full)
growth inhibition, %: -5.75
//
Compound: COc1ccc(C(C2=C(O)CC(C)OC2=O)C2=C(O)CC(C)OC2=O)cc1 (stereo not given)
growth inhibition, %: -19.1
//
Compound: C=C1C2CCC3(CCC4C5(C)CCCC4(CN(CCO)C5)C3C2)C1O (stereo not given)
growth inhibition, %: -13.4
//
Compound: CCOC(=O)c1c(N)n(-c2ccccc2)c(=O)n(-c2ccccc2)c1=O
growth inhibition, %: -31.8
//
Compound: CC(=O)OCC(=O)[C@H]1CC[C@@H]2[C@]1(C)CC=C1[C@]23C=C[C@]2(C[C@@H](OC(C)=O)CC[C@]12C)C1C(=O)OC(=O)C13 (stereo not given in full)
growth inhibition, %: 4.65
//
Compound: CCc1nc(N)nc(N)c1-c1ccc2c(c1)nnn2CCc1ccccc1
growth inhibition, %: 5.05
//
Compound: CCCCC(CC)/C(C)=N/NC(N)=O (stereo not given)
growth inhibition, %: -1.15
//
Compound: Cc1ccc(-n2cnc3sc4c(c3c2=O)CCCC4)cc1
growth inhibition, %: -7.65
//
Compound: CCCCCCCNc1nc(N)nc(Cl)n1
growth inhibition, %: -9.4
//
Compound: COc1cc2c(cc1OC)C(c1c(Cl)cccc1Cl)=NCC2
growth inhibition, %: 42.6
//
Compound: O=C1CCCC2C(O)CCC[C@H]12 (stereo not given in full)
growth inhibition, %: -7.7
//
Compound: C=Cn1c2ccccc2c2ccccc21
growth inhibition, %: -6.75
//
Compound: CCSC(COC(C)=O)(SCC)C(OC(C)=O)C(OC(C)=O)C(COC(C)=O)OC(C)=O (stereo not given)
growth inhibition, %: -2.6
//
Compound: Clc1ccc(-c2nnc(-c3cccc4ccccc34)o2)cc1Cl
growth inhibition, %: -47.9
//
Compound: Oc1ccc(Cl)cc1CN1CCOCC1
growth inhibition, %: 13.3
//
Compound: COC(=O)C(=O)c1c(C(=O)OC)nc2nnc(N)n2c1-c1ccc(Cl)c(Cl)c1
growth inhibition, %: 16.1
//
Compound: CCOC(=N)CC(=O)NC(C)c1ccccc1 (stereo not given)
growth inhibition, %: 0.15
//
Compound: C(=N\N=C\c1ccccc1)/c1ccccc1
growth inhibition, %: -1.15
//
Compound: c1ccc2c(c1)SCCc1nncn1-2
growth inhibition, %: 8.5
//
Compound: O=C(O)c1cccc(C(=O)c2ccccc2)c1
growth inhibition, %: -11.7
//
Compound: Nc1nc(-c2ccccc2)nc2[nH]ncc12
growth inhibition, %: 1.6
//
Compound: CCOC(=O)N1C2CC=CCC1C1(c3ccccc3)OC2(c2ccccc2)c2ccccc21
growth inhibition, %: -1.05
//
Compound: C[C@@]12CCC[C@H]1[C@@H]1CCC3=CC(=O)CC[C@]3(C)[C@H]1CC2
growth inhibition, %: 10.7
//
Compound: Cc1ccc(N=NC(C2=NC(=O)CS2)c2nc3ccccc3[nH]2)cc1 (stereo not given)
growth inhibition, %: -56
//
Compound: CN(C)c1ccc(S(=O)(=O)c2ccc3nc(N)nc(N)c3c2)cc1
growth inhibition, %: -5.9
//
Compound: CC(C)(C)C(=O)N1C(C(=O)O)Cc2ccccc2[C@@H]1Cc1ccccc1 (stereo not given in full)
growth inhibition, %: -11.1
//
Compound: CC1CCCCC(=O)N1 (stereo not given)
growth inhibition, %: 18.6
//
Compound: COc1cc(O)c2c(c1)C(=O)c1cc(C)cc(O)c1C2=O
growth inhibition, %: -26.2
//
Compound: O=C(Nc1ccccc1)c1cc2ccccc2oc1=O
growth inhibition, %: -13.2
//
Compound: COc1cc2c(cc1O)C(C)C(c1ccccc1)O2 (stereo not given)
growth inhibition, %: 7.15
//
Compound: Cn1c(SCc2ccc(F)cc2)nnc1C12CC3CC(CC(C3)C1)C2
growth inhibition, %: -17.4
//
Compound: Cc1ccc(/C=C2\CCCC(C(NO)c3ccc(C)cc3)C2=NO)cc1 (stereo not given)
growth inhibition, %: -6.6
//
Compound: O=Cc1cccc(OC(=O)Nc2ccccc2)c1
growth inhibition, %: 17.1
//
Compound: COc1ccc(C(=O)Oc2ccccc2C)cc1
growth inhibition, %: -6.8
//
Compound: COc1cccc(CN2C(=O)NC(C)(C)C2O)c1 (stereo not given)
growth inhibition, %: 11.6
//
Compound: CC(O)CCC(C)(C)[N+](=O)[O-] (stereo not given)
growth inhibition, %: 0.25
//
Compound: COc1cc(C[C@H]2C(=O)OCC2Cc2ccc(OC)c(OC)c2)ccc1O (stereo not given in full)
growth inhibition, %: 2.05
